Every entry's value here was drawn from ChEMBL document CHEMBL2021847.

- PROCEDURE_SUMMARY: Octanol-water partition coefficient, log D of the compound at pH 7.4 by reverse-phase liquid chromatography
- Type: physicochemical
ASSAY_READOUT: chromatographic logD

• Cc1cccc(C)c1-c1cccc(COc2ccc3c(n2)CCC3CC(=O)O)c1 (stereo not given) = 3.88
• Cc1cc(OCc2ccccc2)cc(C)c1-c1cccc(COc2ccc3c(c2)OCC3CC(=O)O)c1 (stereo not given) = 5.03
• Cc1ccc2ccccc2c1-c1cccc(COc2ccc3c(c2)OCC3CC(=O)O)c1 (stereo not given) = 4.33
• Cc1ccc(-c2cccc(COc3ccc4c(c3)OCC4CC(=O)O)c2)c(C)c1 (stereo not given) = 4.15
• CCOCCOc1cc(C)c(-c2cccc(COc3ccc4c(c3)CC(CC(=O)O)C4)c2)c(C)c1 (stereo not given) = 4.39
• Cc1cccc(C)c1-c1cccc(COc2ccc3c(CC(=O)O)coc3c2)c1 = 4.04
• O=C(O)CC1COc2cc(OCc3cccc(-c4ccc5sccc5c4)c3)ccc21 (stereo not given) = 3.97
• CCOCCOc1cc(C)c(-c2cccc(COc3ccc4c(c3)CCC(C(=O)O)C4)c2)c(C)c1 (stereo not given) = 4.33
• Cc1cccc(C)c1-c1cccc(COc2ccc3c(c2)CCCC3CC(=O)O)c1 (stereo not given) = 4.7
• Cc1cccc(C)c1-c1cccc(COc2ccc3c(c2)OCC3CC(=O)O)c1 (stereo not given) = 3.88
• Cc1cccc(C)c1-c1cccc(COc2ccc3c(c2)CCC3CC(=O)O)c1 (stereo not given) = 4.4
• CCOCCOc1cc(C)c(-c2cccc(COc3ccc4c(c3)CC(C(=O)O)C4)c2)c(C)c1 (stereo not given) = 4.11
• CCOCCOc1cc(C)c(-c2cccc(COc3ccc4c(c3)COC4CC(=O)O)c2)c(C)c1 (stereo not given) = 3.61
• Cc1cc(C)c(-c2cccc(COc3ccc4c(c3)OCC4CC(=O)O)c2)c(C)c1 (stereo not given) = 4.47
• CCOCCOc1cc(C)c(-c2cccc(CNc3ccc4c(c3)OCC4CC(=O)O)c2)c(C)c1 (stereo not given) = 3.13
• CCOCCOc1cc(C)c(-c2cccc(COc3ccc4c(c3)CCC(CC(=O)O)C4)c2)c(C)c1 (stereo not given) = 4.67
• Cc1cccc(C)c1-c1cccc(COc2ccc3c(c2)CC3CC(=O)O)c1 (stereo not given) = 4.12
• Cc1cccc(C)c1-c1cc(COc2ccc3c(c2)OCC3CC(=O)O)ccc1OCc1ccccc1 (stereo not given) = 4.53
• Cc1cccc(C)c1-c1cccc(COc2ccc3c(c2)CCCCC3CC(=O)O)c1 (stereo not given) = 5.02
• CCOCCOc1cc(C)c(-c2cccc(COc3ccc4c(c3)CC(=O)N4CC(=O)O)c2)c(C)c1 = 3.41
• O=C(O)CC1COc2cc(OCc3cccc(-c4csc5ccccc45)c3)ccc21 (stereo not given) = 3.99
• Cc1cccc(C)c1-c1cccc(COc2ccc3c(c2)OCCC(C(=O)O)C3)c1 (stereo not given) = 4.05
• CCOCCOc1cc(C)c(-c2cccc(COc3ccc4c(c3)OCC4CC(=O)O)c2)c(C)c1 (stereo not given) = 3.83
• COc1ccc(COc2ccc3c(c2)OCC3CC(=O)O)cc1-c1c(C)cccc1C (stereo not given) = 3.31
• Cc1cccc(C)c1-c1cccc(COc2ccc3c(ccn3CC(=O)O)c2)c1 = 3.93
